- Assay system: T1, Western Reserve B5 on cells infected with VVddeGFP Western Reserve virus (Vaccinia virus, Western Reserve strain, UniProt Q01227 18-317)
- T1 construct: also called VV B5; WR
- Method notes: flow cytometry, HT29 cells infected with WR VV
Quantity name: EC50 (nM)
All answers are understood in nM, so give the number only.

>  <Binder>
A048-H1L3 (antibody, V domains shown) VH: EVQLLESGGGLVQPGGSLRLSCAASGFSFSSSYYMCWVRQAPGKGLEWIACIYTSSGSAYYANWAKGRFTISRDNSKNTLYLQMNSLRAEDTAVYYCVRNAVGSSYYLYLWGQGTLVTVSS VL: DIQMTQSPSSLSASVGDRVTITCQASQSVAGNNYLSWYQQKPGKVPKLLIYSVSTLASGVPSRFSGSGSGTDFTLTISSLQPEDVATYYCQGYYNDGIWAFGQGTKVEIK

>  <Quantity name>
EC50

>  <Reported result>
3.48

$$$$

Now turn to the next binder.
## Task Consider the binder A048-H1L2 (antibody, V domains shown) VH: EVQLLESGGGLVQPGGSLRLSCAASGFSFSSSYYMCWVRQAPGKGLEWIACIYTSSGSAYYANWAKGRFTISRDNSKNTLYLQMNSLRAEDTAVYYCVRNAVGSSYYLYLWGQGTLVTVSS VL: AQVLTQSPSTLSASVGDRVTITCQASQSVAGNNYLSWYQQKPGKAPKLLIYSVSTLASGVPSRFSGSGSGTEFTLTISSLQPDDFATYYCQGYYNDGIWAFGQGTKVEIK and give its measured EC50.
## Result 2.2
